# testedTarget: Histidine tagged HIF-2α protein containing PAS-B domain (240-350) (Homo sapiens)
# Construct: HIF-2α protein containing PAS-B domain (240-350); made in house
# Sequence (Q99814 240-350): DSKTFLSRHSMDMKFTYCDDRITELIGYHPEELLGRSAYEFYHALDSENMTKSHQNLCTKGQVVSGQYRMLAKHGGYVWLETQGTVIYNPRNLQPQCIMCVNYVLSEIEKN
# assayProcedure: HIF-2α Scintillation Proximity Assay (SPA) binding assay
# conditionLabel: Table 1; 50 nM HIF-2α protein, 25 nM 3H-tracer
measurementName: IC50

> print(dat)
                                    molecule  measurementname        observed
 1  Cc1c(F)ccc2c1N(c1ccc(S(=O)(=O)C(F)(F)F)cc1[N+](=O)[O-])CCC2             IC50       > 1000 nM
 2  N#Cc1cc(F)cc2c1[C@@H](c1ccc(Cl)c3c1CC(F)(F)[C@H]3O)CCC2             IC50  100 to 1000 nM
 3  O=S(=O)(c1ccc([C@H]2CCOc3cc(F)cc(F)c32)c2c1[C@H](O)[C@H](F)C2)C(F)(F)F             IC50  100 to 1000 nM
 4  N#Cc1cc(F)cc2c1[C@@H](c1ccc(S(=O)(=O)C(F)F)c3c1C[C@@H](F)[C@H]3O)CCC2             IC50        < 100 nM
 5  O=S(=O)(c1ccc(C2CCCc3cc(F)cc(F)c32)c2c1[C@H](O)[C@H](F)C2)C(F)(F)F (stereo partly shown)             IC50        < 100 nM
 6  N#Cc1cc(C(F)(F)F)ncc1N1CCCc2cc(F)cc(F)c21             IC50       > 1000 nM
 7  CS(=O)(=O)c1ccc([C@H]2CCCc3cc(F)cc(F)c32)c2c1[C@H](O)[C@H](F)C2 (stereo in doubt) [Example 99]             IC50  100 to 1000 nM
 8  CC[C@H]1CCN(c2ccc(S(=O)(=O)C(F)(F)F)c3c2C[C@@H](F)[C@H]3O)c2c(F)cc(F)cc21             IC50  100 to 1000 nM
 9  O=S1(=O)c2ccc(N3CCCc4cc(F)cc(F)c43)c(Cl)c2C(F)C1(F)F (stereo not shown)             IC50  100 to 1000 nM
10  CS(=O)(=O)c1ccc([C@H]2NCCc3cc(F)cc(F)c32)c2c1[C@H](O)C(F)(F)C2             IC50       > 1000 nM

Dear reader, for each entry below, please note its IC50.
1. CS(=O)(=O)c1ccc([C@@H]2CCCc3cnccc32)c2c1[C@H](O)C(F)(F)C2
2. O=[N+]([O-])c1cc(S(=O)(=O)C(F)(F)F)ccc1N1CCCc2cc(Cl)cc(F)c21
3. O=[N+]([O-])c1cc(S(=O)(=O)C(F)(F)F)ccc1N1CCCc2ccc(F)c(F)c21
4. CS(=O)(=O)c1ccc(N2CCOc3cc(F)cc(C#N)c32)c2c1[C@H](O)[C@H](F)C2

Output:
1: > 1000 nM; 2: > 1000 nM; 3: > 1000 nM; 4: > 1000 nM

Dear reader, for each entry below, please note its IC50.
1. CS(=O)(=O)c1ccc([C@@H]2CCCc3cc(F)cc(F)c32)c2c1[C@H](O)[C@H](F)C2
2. O=S(=O)(c1ccc([C@@H]2CCNc3cc(F)cc(F)c32)c2c1[C@H](O)[C@H](F)C2)C(F)(F)F
3. N#Cc1cc(F)cc2c1N(c1ccc(S(=O)(=O)C(F)(F)F)c(C#N)c1Cl)CCC2
4. CS(=O)(=O)c1ccc(N2CCCc3cc(F)cc(F)c32)c(Cl)c1C#N
5. O=S(=O)(c1ccc(N2CCCc3cc(F)cc(F)c32)c2c1[C@H](O)[C@H](F)C2)C(F)(F)F

Output:
1: > 1000 nM; 2: > 1000 nM; 3: < 100 nM; 4: 100 to 1000 nM; 5: 100 to 1000 nM

Dear reader, for each entry below, please note its IC50.
1. N#Cc1cc(F)cc2c1[C@H](c1ccc(S(=O)(=O)C(F)(F)F)c3c1CC[C@H]3O)CCC2
2. CS(=O)(=O)c1ccc(N2CCCc3cc(F)cc(F)c32)c2c1[C@H](O)C(F)(F)C2 (stereo in doubt)
3. N#Cc1cc(F)cc2c1N(c1ccc(C(F)(F)F)c(F)c1CCO)CCC2

Output:
100 to 1000 nM
100 to 1000 nM
> 1000 nM

Dear reader, for each entry below, please note its IC50.
1. COc1ccc2c(c1)N(c1ccc(S(=O)(=O)C(F)(F)F)cc1[N+](=O)[O-])CCC2
2. O=S(=O)(c1ccc([C@@H]2CCCc3cc(F)cc(F)c32)c2c1[C@H](O)[C@H](F)C2)C(F)(F)F
3. O=S(=O)(c1ccc([C@H]2CCNc3cc(F)cc(F)c32)c2c1[C@H](O)[C@H](F)C2)C(F)(F)F
4. N#Cc1cc(F)cc2c1N(c1ccc(S(=O)(=O)C(F)(F)F)c3cnccc13)CCC2
5. Fc1cc(F)c2c(c1)CCCN2c1ccc(C(F)(F)F)nc1
6. N#Cc1cc(F)cc2c1N(c1ccc(C(F)(F)F)c(F)c1Cl)CCC2
7. O=S(=O)(c1ccc(N2C[C@H](O)Cc3cc(F)cc(F)c32)c2c1[C@H](O)[C@H](F)C2)C(F)(F)F

Output:
["> 1000 nM", "100 to 1000 nM", "> 1000 nM", "100 to 1000 nM", "> 1000 nM", "100 to 1000 nM", "> 1000 nM"]

Dear reader, for each entry below, please note its IC50.
1. N#Cc1cc(F)cc2c1[C@@H](c1ccc(S(=O)(=O)C(F)(F)F)c3c1C[C@@H](F)[C@H]3O)CCC2
2. CC1(O)CCN(c2ccc(C(F)(F)F)c(F)c2C#N)c2c(C#N)cc(F)cc21 (stereo not shown)

Output:
1. < 100 nM
2. 100 to 1000 nM

These entries and their values trace back to patent US11787762B2.
